- systemTested: pooled human IgG
measureName: Enzyme Activity Endpoint Assay (purified): IgG (ng/µL)
A number alone suffices; assume ng/µL.

Query string: Tell me the measured Enzyme Activity Endpoint Assay (purified): IgG of PRT-132 (protein) MRNATEAYAKEVPKQITSVWTKGVTPPTPEQFRYNNEDVIHAPYLAHQGWYDITKAFDGKDNLLCGAATAGNMLHWWFDQNKTEIEAYLSKHPEKQKIIFNNQELFDLKAAIDTKDSQTNSQLFNYFRDKAFPNLSARQLGVMPDLVLDMFINGYYLNVFKTQSTDVNRPYQDKDKRGGIFDAVFTRGDQTTLLTARHDLKNKTLNDISTIIKQELTEGRALALSHTYANVSISHVINLWGADFNAEGNLEAIYVTDSDANASIGMKKYFVGINAHGHVAISAKKIEGENIGAQVLGLFTLSSGKDIWQKLS , please.
Result string: 0
